# Tested on: NCI-H460
# assay method text: Growth inhibition of human NCI-H460 cells assessed as cell growth at 10 uM incubated for 48 hrs by sulforhodamine B assay relative to control
# Format: functional
# measurement context: read-out: Activity
property name: growth at 10 µM (%)

INSERT INTO measurements (compound_structure_string, tested_on, obs_value) VALUES
  ('CC(=O)Nc1cc(CO)cc(NC(=O)c2cccc(NC(=O)CCCN3CCOCC3)c2)c1', 'NCI-H460', 108),
  ('CCN(CC)CC(=O)Nc1cccc(C(=O)Nc2cc(CO)cc(NC(C)=O)c2)c1', 'NCI-H460', 104),
  ('CC(=O)Nc1cc(CO)cc(NC(=O)c2ccccc2)c1', 'NCI-H460', 104),
  ('CC(=O)Nc1ccc(C(=O)Nc2cc(CO)cc(NC(C)=O)c2)cc1', 'NCI-H460', 109),
  ('CC(=O)Nc1cc(CCl)cc(NC(=O)c2ccc(C(=O)Nc3cccc(NC(=O)CCCN(C)C)c3)cc2)c1', 'NCI-H460', 110),
  ('CC(=O)Nc1cc(CO)cc(NC(=O)c2ccc(C(=O)NCCCN(C)C)cc2)c1', 'NCI-H460', 112);

====

# Test system: SK-MEL-5
# assay method text: Growth inhibition of human SK-MEL-5 cells assessed as cell growth at 10 uM incubated for 48 hrs by sulforhodamine B assay relative to control
# Format: functional
# measurement context: read-out: Activity
property name: growth at 10 µM (%)

INSERT INTO measurements (compound_structure_string, property_name, obs_value) VALUES
  ('CC(=O)Nc1cccc(NC(=O)c2ccc(C(=O)Nc3cc(CO)cc(NC(C)=O)c3)cc2)c1', 'growth at 10 µM', 103),
  ('CC(=O)Nc1cc(CO)cc(NC(=O)c2ccc(C(=O)NCCCN3CCOCC3)cc2)c1', 'growth at 10 µM', 102),
  ('CCN(CC)CC(=O)Nc1ccc(C(=O)Nc2cc(CO)cc(NC(C)=O)c2)cc1', 'growth at 10 µM', 103),
  ('CC(=O)Nc1cc(CO)cc(NC(=O)c2ccc(C(=O)Nc3cc(CO)cc(NC(C)=O)c3)cc2)c1', 'growth at 10 µM', 104),
  ('CC(=O)Nc1cc(CO)cc(NC(=O)c2cccc(NC(=O)CCCN3CCOCC3)c2)c1', 'growth at 10 µM', 104),
  ('CC(=O)Nc1cc(CO)cc(NC(=O)c2ccccc2)c1', 'growth at 10 µM', 105),
  ('CC(=O)Nc1cccc(NC(=O)c2ccc(C(=O)Nc3cc(CCl)cc(NC(C)=O)c3)cc2)c1', 'growth at 10 µM', 102),
  ('CC(=O)Nc1cc(CCl)cc(NC(=O)c2ccc(C(=O)Nc3cccc(NC(=O)CCCN(C)C)c3)cc2)c1', 'growth at 10 µM', 93),
  ('CC(=O)Nc1ccc(C(=O)Nc2cc(CO)cc(NC(C)=O)c2)cc1', 'growth at 10 µM', 98.8);

====

# System: SK-MEL-2
# assay method text: Growth inhibition of human SK-MEL-2 cells assessed as cell growth at 10 uM incubated for 48 hrs by sulforhodamine B assay relative to control
# Assay type: functional
# measurement context: read-out: Activity
Catalogue of compounds with associated growth at 10 µM
property name: growth at 10 µM (%)

INSERT INTO results (compound_structure_string, property_name, unit_abbreviation, obs_value) VALUES
  ('CC(=O)Nc1cc(CO)cc(NC(=O)c2ccc(C(=O)Nc3cc(CO)cc(NC(C)=O)c3)cc2)c1', 'growth at 10 µM', '%', 93.3),
  ('CC(=O)Nc1cccc(NC(=O)c2ccc(C(=O)Nc3cc(CCl)cc(NC(C)=O)c3)cc2)c1', 'growth at 10 µM', '%', 100),
  ('CC(=O)Nc1cc(CO)cc(NC(=O)c2cccc(NC(=O)CCCN3CCOCC3)c2)c1', 'growth at 10 µM', '%', 97.8),
  ('CC(=O)Nc1cc(CO[Si](C)(C)C(C)(C)C)cc(NC(=O)c2ccc(C(=O)Nc3cccc(NC(=O)CCCN(C)C)c3)cc2)c1', 'growth at 10 µM', '%', 102),
  ('CC(=O)Nc1ccc(C(=O)Nc2cc(CO)cc(NC(C)=O)c2)cc1', 'growth at 10 µM', '%', 96.3);

====

# Test system: DU-145
# assay method text: Growth inhibition of human DU-145 cells assessed as cell growth at 10 uM incubated for 48 hrs by sulforhodamine B assay relative to control
# Format: functional
# measurement context: read-out: Activity
Catalogue of compounds with associated growth at 10 µM
property name: growth at 10 µM (%)

INSERT INTO assay_data (compound_structure_string, obs_value) VALUES
  ('CC(=O)Nc1cc(CO)cc(NC(=O)c2cccc(NC(=O)CCCN3CCOCC3)c2)c1', 108),
  ('CC(=O)Nc1cc(CO)cc(NC(=O)c2ccccc2)c1', 105),
  ('CC(=O)Nc1cc(CCl)cc(NC(=O)c2ccc(C(=O)Nc3cccc(NC(=O)CCCN(C)C)c3)cc2)c1', 106),
  ('CC(=O)Nc1cc(CO)cc(NC(=O)c2ccc(C(=O)NCCCN(C)C)cc2)c1', 115),
  ('CC(=O)Nc1cc(CO)cc(NC(=O)c2ccc(C(=O)Nc3cccc(NC(=O)CCCN(C)C)c3)cc2)c1', 105),
  ('CC(=O)Nc1cc(CO)cc(NC(=O)c2ccc(C(=O)NCCCN3CCOCC3)cc2)c1', 113),
  ('CCN(CC)CC(=O)Nc1ccc(C(=O)Nc2cc(CO)cc(NC(C)=O)c2)cc1', 119),
  ('CC(=O)Nc1ccc(C(=O)Nc2cc(CO)cc(NC(C)=O)c2)cc1', 108),
  ('CC(=O)Nc1cc(CO)cc(NC(=O)c2ccc(NC(=O)CCCN3CCOCC3)cc2)c1', 115),
  ('CC(=O)Nc1cccc(NC(=O)c2ccc(C(=O)Nc3cc(CO)cc(NC(C)=O)c3)cc2)c1', 117),
  ('CC(=O)Nc1cc(CO[Si](C)(C)C(C)(C)C)cc(NC(=O)c2ccc(C(=O)Nc3cccc(NC(=O)CCCN(C)C)c3)cc2)c1', 97),
  ('CC(=O)Nc1cccc(NC(=O)c2ccc(C(=O)Nc3cc(CCl)cc(NC(C)=O)c3)cc2)c1', 119),
  ('CC(=O)Nc1cc(CCl)cc(NC(=O)c2ccc(C(=O)NCCCN(C)C)cc2)c1', 112),
  ('CCN(CC)CC(=O)Nc1cccc(C(=O)Nc2cc(CO)cc(NC(C)=O)c2)c1', 125),
  ('CC(=O)Nc1cc(CO)cc(NC(=O)c2ccc(C(=O)Nc3cc(CO)cc(NC(C)=O)c3)cc2)c1', 127);

====

Catalogue of molecules with associated growth at 10 µM
# System: OVCAR-3
# assay method text: Growth inhibition of human OVCAR-3 cells assessed as cell growth at 10 uM incubated for 48 hrs by sulforhodamine B assay relative to control
# Format: functional
# measurement context: read-out: Activity
property name: growth at 10 µM (%)

INSERT INTO results (compound_structure_string, tested_on, unit_abbreviation, obs_value) VALUES
  ('CC(=O)Nc1cc(CO[Si](C)(C)C(C)(C)C)cc(NC(=O)c2ccc(C(=O)Nc3cccc(NC(=O)CCCN(C)C)c3)cc2)c1', 'OVCAR-3', '%', 104),
  ('CC(=O)Nc1cc(CO)cc(NC(=O)c2ccc(C(=O)Nc3cccc(NC(=O)CCCN(C)C)c3)cc2)c1', 'OVCAR-3', '%', 119),
  ('CC(=O)Nc1cc(CO)cc(NC(=O)c2ccc(C(=O)NCCCN(C)C)cc2)c1', 'OVCAR-3', '%', 129),
  ('CC(=O)Nc1cc(CCl)cc(NC(=O)c2ccc(C(=O)Nc3cccc(NC(=O)CCCN(C)C)c3)cc2)c1', 'OVCAR-3', '%', 113);

====

# Test system: CCRF-CEM
# assay method text: Growth inhibition of human CCRF-CEM cells assessed as cell growth at 10 uM incubated for 48 hrs by sulforhodamine B assay relative to control
# Assay type: functional
# measurement context: read-out: Activity
Catalogue of compounds with associated growth at 10 µM
property name: growth at 10 µM (%)

INSERT INTO assay_data (compound_structure_string, unit_abbreviation, obs_value) VALUES
  ('CCN(CC)CC(=O)Nc1cccc(C(=O)Nc2cc(CO)cc(NC(C)=O)c2)c1', '%', 97.2),
  ('CC(=O)Nc1cc(CO)cc(NC(=O)c2ccc(C(=O)NCCCN(C)C)cc2)c1', '%', 90),
  ('CC(=O)Nc1cc(CO[Si](C)(C)C(C)(C)C)cc(NC(=O)c2ccc(C(=O)Nc3cccc(NC(=O)CCCN(C)C)c3)cc2)c1', '%', 109),
  ('CC(=O)Nc1cc(CO)cc(NC(=O)c2ccccc2)c1', '%', 110),
  ('CC(=O)Nc1cc(CCl)cc(NC(=O)c2ccc(C(=O)Nc3cccc(NC(=O)CCCN(C)C)c3)cc2)c1', '%', 114),
  ('CC(=O)Nc1cccc(NC(=O)c2ccc(C(=O)Nc3cc(CO)cc(NC(C)=O)c3)cc2)c1', '%', 93),
  ('CC(=O)Nc1cc(CO)cc(NC(=O)c2ccc(NC(=O)CCCN3CCOCC3)cc2)c1', '%', 87),
  ('CC(=O)Nc1ccc(C(=O)Nc2cc(CO)cc(NC(C)=O)c2)cc1', '%', 82.2),
  ('CC(=O)Nc1cc(CO)cc(NC(=O)c2cccc(NC(=O)CCCN3CCOCC3)c2)c1', '%', 89.4),
  ('CC(=O)Nc1cc(CO)cc(NC(=O)c2ccc(C(=O)NCCCN3CCOCC3)cc2)c1', '%', 94.9);

From: ChEMBL document CHEMBL4715697
